# assay_overview: method code SF-HPLC, from DOI: 10.1002/jps.1029, PMID: 11357176
assay_metric: logP
// return a plain number; no unit text

>>> print(df.to_string())
            substance_smiles  assay_metric  value_observed
0  COc1c2occc2cc2ccc(=O)oc12          logP            2.07

Give its logP value. Item: "O=c1ccc2cc3ccoc3cc2o1"
2.08

---

Below: a set of entries, each annotated with reported logP.
// return a plain number; no unit text

Examples from the recorded data:
>>> df
               substance_smiles  value_observed
0  Cc1oc2ccc3c(C)cc(=O)oc3c2c1C            3.28
1   Cc1cc(=O)oc2c1cc(C)c1occc12            2.79
2         O=c1ccc2cc3ccoc3cc2s1            2.61
3   Cc1coc2nc3oc(=O)ccc3c(C)c12            1.73

Give its logP value. Item: "Cc1c2oc(=O)ccc2c(C)c2c(C)coc12"
3.35

Give its logP value. Item: "Cc1cc2c(o1)c(C)cc1c(C)cc(=O)oc12"
3.15

---

Below: a set of entries, each annotated with reported logP.
// return a plain number; no unit text

In [3]: df
Out[3]:
               substance_smiles  value_observed
0  Cc1c(C)c2ccc3occ(C)c3c2oc1=O            3.25

Give its logP value. Item: "Cc1cc2occc2c2oc(=O)ccc12"
2.5

Give its logP value. Item: "Cc1cc(=O)n(C)c2c1cc(C)c1occ(C)c12"
3.3

Give its logP value. Item: "Cc1oc2c(C)cc3ccc(=O)oc3c2c1C"
3.34

Give its logP value. Item: "Cc1coc2ccc3ccc(=O)oc3c12"
2.51

Give its logP value. Item: "Cc1c(C)c2cc(C)c3occc3c2oc1=O"
3.23

Give its logP value. Item: "O=c1ccc2ccc3occc3c2[nH]1"
1.82

Give its logP value. Item: "Cc1coc2nc3oc(=O)cc(C)c3c(C)c12"
2.25

Give its logP value. Item: "Cc1cc2ccc3occ(C)c3c2oc1=O"
2.97

Give its logP value. Item: "Cc1cc2c(ccc3c(C)c(C)c(=O)n(C)c32)o1"
3.54

Give its logP value. Item: "COc1c2occc2cc2ccc(=O)sc12"
2.66

Give its logP value. Item: "O=c1ccc2ccc3occc3c2s1"
2.58

Give its logP value. Item: "Cc1cc2c(C)cc3oc(=O)cc(C)c3c2o1"
3.25

Give its logP value. Item: "Cc1cc2c(o1)c(C)cc1ccc(=O)oc12"
2.85

---

Below: a set of entries, each annotated with reported logP.
// return a plain number; no unit text

                     substance_smiles  value_observed
0         Cc1coc2cc3oc(=O)ccc3c(C)c12            2.79
1  COc1c2oc(=O)c(C)cc2cc2c(C)c(C)oc12            3.28
2      Cc1oc2c(C)cc3c(C)cc(O)nc3c2c1C             3.5
3      Cc1cc2cc3c(C)cc(=O)oc3c(C)c2o1            3.25
4      Cc1coc2c(C)c3oc(=O)cc(C)c3cc12            3.25
5    Cc1cc2c(cc(C)c3c(C)cc(=O)oc32)o1            3.36
6         Cc1cc2ccc(=O)oc2c2c(C)coc12            2.88
7         Cc1coc2c(C)c3oc(=O)ccc3cc12            2.81

Give its logP value. Item: "Cc1oc2cc3oc(=O)ccc3c(C)c2c1C"
3.27

Give its logP value. Item: "Cc1c(C)c2cc3c(C)coc3nc2oc1=O"
2.25

Give its logP value. Item: "Cc1cc(=O)oc2c1ccc1occ(C)c12"
2.81

---

assay_metric: logP
// return a plain number; no unit text

Examples from the recorded data:
>>> df
                   substance_smiles  value_observed
0      Cc1oc2nc3oc(=O)ccc3c(C)c2c1C            2.19
1     Cc1cc2c(ccc3cc(C)c(=O)oc32)o1            2.97
2  Cc1cc2c(ccc3c(C)cc(=O)n(C)c32)o1            3.08
3  Cc1cc2c(ccc3c(C)c(C)c(=O)oc32)o1            3.27
4       Cc1c(C)c2occc2c2oc(=O)ccc12            2.84
5         Cc1c(C)c2cc3ccoc3cc2oc1=O            2.77

Give its logP value. Item: "O=c1ccc2cc3ccsc3cc2s1"
2.96

Give its logP value. Item: "Cc1sc2ccc3c(C)cc(=O)oc3c2c1C"
3.65

---

assay_metric: logP
// return a plain number; no unit text

Examples from the recorded data:
                      substance_smiles  value_observed
0         Cc1oc2cc3oc(=O)cc(C)c3cc2c1C            3.22
1    Cc1cc(=O)[nH]c2c1cc(C)c1occ(C)c12            3.13
2  Cc1cc2c(o1)c(C)cc1c(C)cc(=O)n(C)c12            3.43
3      Cc1c(C)c2cc3c(C)coc3c(C)c2oc1=O            3.62
4            Cc1oc2cc3oc(=O)ccc3cc2c1C            2.93

Now consider a different compound.
Give its logP value. Item: "Cc1cc2occ(C)c2c2oc(=O)ccc12"
2.92

---

Hi! Could you tag entries with logP below 3 as criterion met, and those at or above as criterion not met? Much appreciated.

>>> print(df.to_string())
               substance_smiles     category_label
0     Cc1oc2cc3oc(=O)ncc3cc2c1C      criterion met
1      Cc1cc(=O)oc2c1ccc1occc12      criterion met
2   Cc1coc2nc3oc(=O)cc(C)c3cc12      criterion met
3   Cc1cc(=O)oc2c(C)c3occc3cc12      criterion met
4  Cc1c(C)c2cc3ccoc3c(C)c2oc1=O  criterion not met
5   Cc1coc2cc3oc(=O)cc(C)c3cc12      criterion met

I wonder whether "Cc1c2ccoc2cc2oc(=O)ccc12" has logP below 3. Can you tell?
criterion met

I wonder whether "Cc1cc2c(C)c3ccc(=O)oc3cc2o1" has logP below 3. Can you tell?
criterion met

I wonder whether "Cc1cc2c(ccc3c(C)cc(=O)oc32)o1" has logP below 3. Can you tell?
criterion met

I wonder whether "Cc1cc(=O)oc2c1cc(C)c1occ(C)c12" has logP below 3. Can you tell?
criterion not met

I wonder whether "Cc1c2occc2cc2ccc(=O)oc12" has logP below 3. Can you tell?
criterion met

---

assay_metric: logP

>>> df
               substance_smiles  assay_metric  value_observed
0   Cc1cc2cc3ccc(=O)oc3c(C)c2o1          logP            2.93
1   Cc1cc2cc3c(C)cc(=O)oc3cc2o1          logP            2.82
2      Cc1cc2ccc(=O)oc2c2ccoc12          logP            2.43
3  Cc1sc2cc3oc(=O)cc(C)c3cc2c1C          logP            3.48

Give its logP value. Item: "Cc1oc2ccc3c(C)cc(=O)[nH]c3c2c1C"
3.18

Give its logP value. Item: "O=c1ccc2cc3ccsc3cc2o1"
2.27

Give its logP value. Item: "Cc1cc2ccc3occc3c2oc1=O"
2.49

Give its logP value. Item: "Cc1cc2c(ccc3ccc(=O)oc32)o1"
2.49

Give its logP value. Item: "Cc1oc2ccc3ccc(=O)oc3c2c1C"
2.94

Give its logP value. Item: "Cc1coc2cc3oc(=O)ccc3cc12"
2.47

Give its logP value. Item: "Cc1sc2c(C)cc3c(C)cc(=O)oc3c2c1C"
4.09

Give its logP value. Item: "Cc1coc2c1c(C)cc1oc(=O)cc(C)c12"
3.28

Give its logP value. Item: "Cc1oc2nc3oc(=O)c(C)c(C)c3cc2c1C"
2.71

Give its logP value. Item: "Cc1cc2c(cc(C)c3ccc(=O)oc32)o1"
2.92

Give its logP value. Item: "Cc1cc2c(o1)c(C)c(C)c1ccc(=O)oc12"
3.26
